Value source: PubChem BioAssay (NCI)

test: NCI Yeast Anticancer Drug Screen. Data for the rad50 strain (AID 155);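 further: 0% = growth of vehicle-only cultures of the same strain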; conditions: S. cerevisiae rad50 strain growth inhibition; at 50.0 µM; active compounds read high
Compounds without any hit were thinned out: in the full panel of roughly 79,000, 15% have a hit.
Would you mind labelling by growth inhibition? At or over 20% is Fulfilled, under is Not fulfilled.

molecule: CCOC(=O)C1=C(C)N(Cc2ccccc2)C2(O)C1=CC(=O)C(Cl)=C2Cl (stereo not drawn)
class: Fulfilled
//
molecule: CCc1cccc(C(C)(C)C)c1NC(=S)NC=C(C#N)C#N
class: Fulfilled
//
molecule: Cn1ncc2c(=S)[nH]c(=S)[nH]c21
class: Not fulfilled
//
molecule: COc1cccc2c1C(=O)c1c(O)c3c(c(O)c1C2=O)CC(O)(C(C)=O)CC3O (stereo not drawn)
class: Fulfilled
//
molecule: COc1ccc(/C(=N\NC(=O)NN)C(c2ccc(OC)cc2)C2(O)C(=O)Nc3c(Cl)cc(Cl)cc32)cc1 (stereo not drawn)
class: Not fulfilled
//
molecule: COc1ccc(/C=N/n2cnc3c(sc(=S)n3-c3ccccc3)c2=O)cc1
class: Fulfilled
//
molecule: CC(=O)CC(=O)NCCCN1CCCCCC1
class: Not fulfilled
//
molecule: Cc1cccc(SC(=O)Nc2cc([N+](=O)[O-])ccc2Cl)c1
class: Not fulfilled
//
molecule: CC1(C(=O)O)CCCC1C(=O)O (stereo not drawn)
class: Not fulfilled
//
molecule: Oc1cccc(Oc2cccc(Oc3cccc(O)c3)c2)c1
class: Not fulfilled
//
molecule: CC(C)(CO)C(Cl)C(=O)NCCC(=O)O (stereo not drawn)
class: Not fulfilled
//
molecule: N#CC1C2CCC(C2)C1CCCN (stereo not drawn)
class: Not fulfilled
//
molecule: COC(=O)Nc1cccc(-c2nc3ccc(NC(=O)OC)cc3c(=O)n2-c2ccccc2)c1
class: Not fulfilled
//
molecule: CC(=O)O[C@H]1CC[C@@]2(C)[C@@H](CC[C@@H]3[C@@H]2CC[C@]2(C)[C@@H](C(=O)CCC(F)(F)F)CC[C@@H]32)C1
class: Not fulfilled
//
molecule: N#C/C(=C\c1ccc2[nH]ccc2c1)C(=O)NCCCCNC(=O)/C(C#N)=C/c1ccc2[nH]ccc2c1
class: Not fulfilled
//
molecule: CCCCCCC1OCC(C)([N+](=O)[O-])CO1 (stereo not drawn)
class: Not fulfilled
//
molecule: c1ccc(C(=C2CCC2)c2c3ccccc3cc3ccccc23)cc1
class: Not fulfilled
//
molecule: O=C(C[N+]12CN3CN(CN(C3)C1)C2)c1ccc(-c2ccccc2)cc1
class: Fulfilled
//
molecule: NC(N)=NCCS(=O)(=O)O
class: Not fulfilled
//
molecule: NCCSS(=O)(=O)CCN
class: Not fulfilled
//
molecule: O=C(O)c1ccccc1CC(C(=O)O)C(=O)O
class: Not fulfilled
//
molecule: COc1ccc2ccccc2c1C(=O)/C=C/c1ccccc1
class: Fulfilled
//
molecule: COc1ccc(OC)c(C(=O)C=C(C(F)(F)F)C(F)(F)F)c1
class: Not fulfilled

###

assay: NCI Yeast Anticancer Drug Screen. Data for the bub3 strain (AID 167); conditions: S. cerevisiae bub3 mutant strain, at 50.0 µM, active compounds read high
Compounds without any hit were thinned out: in the full panel of roughly 79,000, 15% have a hit.
growth inhibition listing for selected molecules.

molecule: CN(C)c1ccc(C2SCC(=O)N2NS(=O)(=O)c2cccc(C(=O)O)c2)cc1 (stereo not given)
output.unit: %
growth inhibition: -24.6
--
molecule: Cc1ccc2c(c1)CCCN2
output.unit: %
growth inhibition: 9.8
--
molecule: CCOC(=O)NN(C(=O)OCC)C(C(=O)C1=CCCCC1)N(NC(=O)OCC)C(=O)OCC
output.unit: %
growth inhibition: 0.3
--
molecule: O=C1C=CC(=NCl)C=C1
output.unit: %
growth inhibition: 1.15
--
molecule: [Cu+2].[O-]C1c2c(ccc3ccccc23)-c2ccccc2C1N=Nc1ccccc1.[O-]c1c(N=Nc2ccccc2)c2ccccc2c2ccc3ccccc3c12 (stereo not given)
output.unit: %
growth inhibition: -10.9
